assay: Inhibition of HIV1 reverse transcriptase L100I mutant infected in human MT4 cells assessed as protection against virus-induced cytotoxicity by MTT assay
quantityKind: EC50 (nM)
Reply with just the number (in nM).

Bench note: what EC50 did Cc1cc(C#N)cc(C)c1Oc1nc(NC2CCN(Cc3ccc(S(N)(=O)=O)cc3)CC2)nc2cc[nH]c12 show?
4.2

* * *

experiment: Inhibition of HIV1 reverse transcriptase E138K mutant infected in human MT4 cells assessed as protection against virus-induced cytotoxicity by MTT assay
quantityKind: EC50
Hi, when you answer, please include the unit after the number. Thanks!

1. Cc1cc(C#N)cc(C)c1Oc1nc(NC2CCN(Cc3ccco3)CC2)nc2ccsc12 = 8.8 nM
2. Cc1cc(C#N)cc(C)c1Oc1nc(NC2CCN(Cc3ccc(S(N)(=O)=O)cc3)CC2)nc2cc[nH]c12 = 4 nM
3. Cc1cc(C#N)cc(C)c1Oc1nc(NC2CCN(Cc3cn(S(C)(=O)=O)cn3)CC2)nc2ccsc12 = 13 nM
4. Cc1cc(C#N)cc(C)c1Oc1nc(NC2CCN(Cc3c[nH]cn3)CC2)nc2ccsc12 = 12 nM

# next compound below
Any idea what its EC50 is? The compound is Cc1cc(C#N)cc(C)c1Oc1nc(NC2CCN(Cc3cc(=O)[nH]c(=O)[nH]3)CC2)nc2ccsc12
7 nM
